Molecular target: Adrenergic receptor alpha-2 (Homo sapiens, UniProt P08913+P18825+P18089)
Test: Inhibition of Alpha-2 adrenergic receptor
Type: protein assay
RECORDED METRIC: IC50 (nM)

Record request: IC50 value, item "O=C1c2ccccc2S(=O)(=O)N1CCCCN1CCN(c2ncccn2)CC1" 1000

A = COc1ccc(N2CCN(CCCCc3c[nH]c4ccc(OC)cc34)CC2)cc1
B = NC(=O)c1ccc2[nH]cc(CCCCN3CCN(c4ccc5c(c4)OCO5)CC3)c2c1
C = COc1ccc(N2CCN(CCCCc3c[nH]c4ccc(C(N)=O)cc34)CC2)cc1
# desc sort on IC50 across 3 compounds Put the labels in the requested order and write them down. A, C, B
(A: 7000 nM, C: 2000 nM, B: 900 nM)

---

Target: D(2) dopamine receptor (Rattus norvegicus)
Sequence (P61169 whole entry): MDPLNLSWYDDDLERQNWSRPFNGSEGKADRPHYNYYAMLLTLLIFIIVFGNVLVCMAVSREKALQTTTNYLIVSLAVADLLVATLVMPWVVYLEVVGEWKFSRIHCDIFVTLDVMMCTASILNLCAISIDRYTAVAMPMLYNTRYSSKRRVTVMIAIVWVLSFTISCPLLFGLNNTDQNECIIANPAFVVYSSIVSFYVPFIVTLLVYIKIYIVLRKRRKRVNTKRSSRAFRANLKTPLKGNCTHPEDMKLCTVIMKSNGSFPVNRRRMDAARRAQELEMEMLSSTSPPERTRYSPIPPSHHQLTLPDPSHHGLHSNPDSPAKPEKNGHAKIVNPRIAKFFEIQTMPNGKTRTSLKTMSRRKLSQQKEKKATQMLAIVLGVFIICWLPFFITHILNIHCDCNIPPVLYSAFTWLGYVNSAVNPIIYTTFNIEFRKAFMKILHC
Test: Displacement of [3H]spiperone from dopamine D2 receptor of rat striatal membranes
RECORDED METRIC: IC50 (nM)

Completed entries (count: 10):
Record request: IC50 value, item "COc1ccc(N2CCN(CCCCc3c[nH]c4ccc(C(N)=O)cc34)CC2)c(OC)c1" 100

Record request: IC50 value, item "O=C1c2ccccc2S(=O)(=O)N1CCCCN1CCN(c2ncccn2)CC1" 2900

Record request: IC50 value, item "COc1ccc2[nH]cc(CCCCN3CCN(c4ccc(OCc5ccccc5)cc4)CC3)c2c1" 220

Record request: IC50 value, item "COc1ccc2[nH]cc(CCCCN3CCN(c4ccc(OC)c(OC)c4)CC3)c2c1" 100

Record request: IC50 value, item "NC(=O)c1ccc2[nH]cc(CCCCN3CCN(c4ccccc4C(N)=O)CC3)c2c1" 97

Record request: IC50 value, item "NC(=O)c1ccc2[nH]cc(CCCCN3CCN(c4ccccc4)CC3)c2c1" 7

Record request: IC50 value, item "N#Cc1c(F)cccc1N1CCN(CCCCc2c[nH]c3ccc(C(N)=O)cc23)CC1" 5

Record request: IC50 value, item "Oc1ccc2[nH]cc(CCCCN3CCC(c4ccccc4)CC3)c2c1" 80

Record request: IC50 value, item "COC(=O)c1ccc2[nH]cc(CCCCN3CCC(c4ccccc4)CC3)c2c1" 113

Record request: IC50 value, item "Oc1ccc2[nH]cc(CCCCN3CC=C(c4ccccc4)CC3)c2c1" 5.6

I = COc1ccc2[nH]cc(CCCCN3CCN(c4ccccc4)CC3)c2c1
II = COc1ccc(N2CCN(CCCCc3c[nH]c4ccc(C(N)=O)cc34)CC2)cc1
Would you mind telling me which has the lower recorded IC50 between I and II ? Your answer should be the label of the entry you select. I

---

Target: Adrenergic receptor alpha-1 (Homo sapiens, UniProt P35348+P25100+P35368)
Assay: Inhibition of Alpha-1 adrenergic receptor
Assay type: protein assay
RECORDED METRIC: IC50 (nM)

Record request: IC50 value, item "O=C1c2ccccc2S(=O)(=O)N1CCCCN1CCN(c2ncccn2)CC1" 500

a = COc1ccc(N2CCN(CCCCc3c[nH]c4ccc(OC)cc34)CC2)cc1
b = NC(=O)c1ccc2[nH]cc(CCCCN3CCN(c4ccc5c(c4)OCO5)CC3)c2c1
c = COc1ccc(N2CCN(CCCCc3c[nH]c4ccc(C(N)=O)cc34)CC2)cc1
# desc sort on IC50 across 3 compounds Put the labels in the requested order and write them down. a, c, b
